system: SF-295 CNS; experiment: NCI-60 one-dose screen, 48 h (100 = growth as untreated, 0 = no growth, -100 = all killed); conditions: 10 µM unless noted
Compounds without any hit were thinned out: in the full panel of roughly 83,000, 20% have a hit.
Decide using growth: a value greater than or equal to 50% is y, a smaller one is n.

STRUCTURE STRING	EXPERIMENTAL TARGET	CATEGORY LABEL
Cc1ccc(NC(=O)C(Cl)Cl)cc1	SF-295 CNS	y
CN(C)c1ccc(/C=N/NC(=O)COc2cc(=O)n(C)c3ccccc23)cc1	SF-295 CNS	y
NC(=S)c1csc(CCNC(=O)c2ccccc2)n1	SF-295 CNS	y
CCCCNC(=O)c1cc(NCc2cc(O)ccc2O)ccc1O	SF-295 CNS	y
COc1cc(NC(=O)c2cc(O)c(CC=C(C)C)c(O)c2)cc2c1O[C@]1(C)CC[C@@H](O)C(C)(C)[C@H]1C2	SF-295 CNS	n
CN(C)c1ccc2cc(-c3ccc(Cl)c(Cl)c3)c(N)nc2c1	SF-295 CNS	n
C[N+](C)(C)CCOC(OCC[N+](C)(C)C)(c1ccccc1)c1ccccc1	SF-295 CNS	y
CSc1nc2sc3cc(Cl)ccc3n2c(=N)c1C#N	SF-295 CNS	n
Clc1ccc(-c2nnc(-c3ccco3)o2)cc1	SF-295 CNS	y
CS(=O)(=O)c1ccc(-c2nc3cc(Cl)ccc3n2CC(=O)N/N=C/c2ccc(Cl)cc2)cc1	SF-295 CNS	n
